- test: yeast display, Sf9 membrane polyspecificity reagent, FACS + sequencing; frameworks hold sequencing errors
measurementLabel: polyreactivity (PSR sort gate)

- monomerSequence: "QVQLVESGGGLVQAGGSLRLSGAASGFTFFINGMGWYRQAPGKVRELVAAIRSSGASTYYADSVKGRFTISRDNAKNTVYLQMNSLKPEDTAVYYCNARSRVGNSVADYDYCGQGTQVTVSS"
  measuredResult: "low polyreactivity"
- monomerSequence: "QVQLVESGGGLVQAGGSLRLSCAASGFIVASNAMGGDRQAPGKVRELLAAINSSAGSTYYADSVKGRFTISRDNAKNTVYLQMNSQKPEDTAVYYCNRDDGSVYRRHRRPYYYWGQRTQVTVSS"
  measuredResult: "low polyreactivity"
- monomerSequence: "QVHLVESGGGLVQAGGSLRLSCAASGSIFSYYAMGWYRQAPGKERELVAAISQSGGSTYYSDSVKGRFTISRDNAKNTVYLQMNSLKPEDTAVYYCNSGRGTFKRYTALQYWGQGTQVTVSS"
  measuredResult: "low polyreactivity"

====

- test: yeast display, Sf9 membrane polyspecificity reagent, FACS + sequencing; frameworks hold sequencing errors
measurementLabel: polyreactivity (PSR sort gate)

Reference set (10 entries):
- monomerSequence: "QVQLVESGGGLVQAGGSLRLSCAASGSIFPHYAMGWYREAPGKERELVAAISRGGSTNYADSVKGRFTISRDNAKNTVYLQMNSLKPEDTAVYYCNALRYYSRFQYAVAYRYDYWGQGTQVTVSS"
  polyreactivity (PSR sort gate): "high polyreactivity"
- monomerSequence: "QVQLVESGGGLVQAGGSLRLSCAASGRTFYYYAMGWYRQAPGKEREFVAAIRFSGGNTYYADSVKGRFTISRDNAKNTVYLQMNSLKPVDTAVYYCAARRLLYKYWTGGPYDYWGQGTQVTVSS"
  polyreactivity (PSR sort gate): "high polyreactivity"
- monomerSequence: "QVQLVESGGGLVQAGGSLRLSCAASGRTFKYKAMGWYRQAPGKERELVDAISSDDSTNYADSVKGRFTISRDKAQNTVYLQMNSLKPEDTAVYYCAARYGYSKWPDRVQAYKHDYWGQGTQVTVSS"
  polyreactivity (PSR sort gate): "low polyreactivity"
- monomerSequence: "QVQLVESGGGLVQAGGSLRLSCAASGRIFTSYAMGWYRQAPGKERELVAAINRGGSTYYADSVKGRFTISRDNAKNTVYLQMNSLKPEDTAVYYCAAGTRSRAPYYRTIVDTYGYWGQGTQVTVSS"
  polyreactivity (PSR sort gate): "low polyreactivity"
- monomerSequence: "QVQLVESGGGLVQAGGSLRLSCAASGRIFTGNAMGWYRQAPGKERELVAAISRRGTRTYYADSVKGRFTISRDNAKNTVYLQMNSLKPEDTAVYYCATRPGYWRYEYWGQGTQVTVSS"
  polyreactivity (PSR sort gate): "high polyreactivity"
- monomerSequence: "QVQLVESGGGLVQAGGSLRLSCAASGSTVNKYAMGWYRHAPGKERELVAAITTSGGRTYYADSVKGRFTISRDNAKNTVYLQMNSLKPEDTAVYYCNARIRRNYAYPKGESWGQGTQVTVSS"
  polyreactivity (PSR sort gate): "high polyreactivity"
- monomerSequence: "QVQLVESGGGLVQAGGSLRLSCAASGRTLFHYAMGWYRQAPGKERELVAAIRNSDGSTYYADSVKGRFTISRDNAKNSVYLQMNSLKPEDTGDYNCAAKYKYGTYNYWGQGSQVTVSS"
  polyreactivity (PSR sort gate): "high polyreactivity"
- monomerSequence: "QVQLEESGGGLVQAGGSLSLSCAASGSIFSNYAMGWYRQAPGKERELVAAIRISGGSTKYADSVKGRFTISRDNAKNTVYLQMNSLKPEDTAVYYCAAANSKRHRRYNYWGQGTQVTVSS"
  polyreactivity (PSR sort gate): "high polyreactivity"
- monomerSequence: "QVQLEESGGGLVQAGGSLRLSCAASGSTFTVNGMGWYRQAPGKERELVAAIDGGDGSTYYADSVKGRFTISRDNAKNTVYLQMNSLKPEDTAVYYCAADTPCFTQYGYWGQGTQVTVSS"
  polyreactivity (PSR sort gate): "low polyreactivity"
- monomerSequence: "QVQLVESGGGLVQAGGSLRLSCSASGSIFRGYTMGLYRQAPGKERELVAGITLRGVSTYYADSVKGRFTISRDNAKNTVYVQMNSLKPEDTAVYYGAVDYGRAVQGDSITYDFNYWGQGTQVTVSS"
  polyreactivity (PSR sort gate): "low polyreactivity"

If you can, please state the reported polyreactivity (PSR sort gate) value of QVQLQESGGGLVQAGGSLRLSCAESGTIFGWDRMGRYRQAPGKERELVATIDNRGSTNYADSVKGRFTISRDNAKNTVYPQMNSLKPDDTAVYYCAVVGPTPQYHLYWGQGTQVTVSS .
high polyreactivity

If you can, please state the reported polyreactivity (PSR sort gate) value of QVQLVESGGGLVQAGGSLRLSCAATGRIFQRNAMGWYRQAPGKERELVAVISKSGGSTYYADSVKGRFTISRDNAKNTVYLQMNSLKPEDTAVYYCATRYFRPGEKYDYWGQGTQVTVSS .
low polyreactivity

If you can, please state the reported polyreactivity (PSR sort gate) value of QVQLVESGGGLVQAGGSLRLSCAASGRTFFKYAMGWYRQAPGKERELVATITSSGGITYADSVKGRFTISRDNAKNTVYLQMNSLKPEDTAVYYCNARVWVTHYSELNYWGQGTQLTVSS .
low polyreactivity

If you can, please state the reported polyreactivity (PSR sort gate) value of QVQLVESGGGLVQAGGSLRLSCAASGSIFRPYAMGWYRQAPGKERELVATITWRGGSTTYADSVKGRFTISRDNAKNTVYLQMNSLKPEDTAVYYCAADASWELFAWAHYDYWGQGTQVTVSS .
low polyreactivity

If you can, please state the reported polyreactivity (PSR sort gate) value of QVQLVESGGGLVQAGGSLRLSCAASGSIFSYYVMGWYRQAPGKERELVAAISWSGGSTYYADSVKGRFTISRDNAKNTVYLQMNSLKPEDTAVYYCAAGTYPYYWGQGTQVTVSS .
low polyreactivity

If you can, please state the reported polyreactivity (PSR sort gate) value of QVQLVESGGGLVQAGGSLRLSCAASGFTVWLYAMGWYRQAPGKEREFVAAISTSGGSTYADSVKGRFTISRDNAKKTVYLQMNSLKPEDTAVYYCAADDLPSTGYDYWGQRTQVTVSS .
low polyreactivity

If you can, please state the reported polyreactivity (PSR sort gate) value of QVQLVESGGGLVQAGGSLRLSCAASGRTFYDNAMGWYRQAPGKERELVAVISTSGARTYYADSVKGRFTISRDNAKNTVYLQMNSLKPEDTAVYYCAAGPALWQAYRMYYWGQGTQVTVSS .
high polyreactivity

If you can, please state the reported polyreactivity (PSR sort gate) value of QVQLVESGGGLVQAGGSLRLSCAASGSIFRNYAMGWYRQAPGKERELVAAISRRGGSTYYADSVKGRFTISRDNAKNTVYLQMNSLKPEDTAVYYCKKRWSSKTVQYDYWGQGTQVTVSS .
high polyreactivity

If you can, please state the reported polyreactivity (PSR sort gate) value of QVQLVESGGGLVQAGGSLRLSCAASGIIFAQYVMGWYRQAPGKERQLVAAIRTSGGRTYYADSVKGRFTISRDHAKITVYLQMISLKPVDTAVYYCAAYGKPTFRSVDYWGQGTQVTVSS .
high polyreactivity

If you can, please state the reported polyreactivity (PSR sort gate) value of QVQLVESGGGLLQAGGSLRLSSAASGFIFNWYAMGGYRQAPGKERELVAAITSGGSTNYADSVKGRFTISRDNAKNTVYLQMNSLKPEDTAVYYCAARHWRRYGYCGQGTQVTVSS .
high polyreactivity

If you can, please state the reported polyreactivity (PSR sort gate) value of QVQLVESGGGLVQAGGSLRLSCAASGSIFDYYDMGWYRQAPGKERELVAAINWSGGITYYADSVKGRFTISRDNAKNTVYLQMNSLKPEDTAVYYCAADWYQWVYSSSITSFDYWGQGTQVTVSS .
low polyreactivity

====

- test: yeast display, Sf9 membrane polyspecificity reagent, FACS + sequencing; frameworks hold sequencing errors
measurementLabel: polyreactivity (PSR sort gate)

Reference set (6 entries):
- monomerSequence: "QVQLVESGGGLVQAGGSLRLSCAASGRTFYGYAMGWYIQAPGKERELVASISYSGGNTYYADSVKGRFTISRDNAKNTVYLQMNSLKPEDTAVYYCAAKARRPYSYHPYDYWGLGTQVTVSS"
  measuredResult: "high polyreactivity"
- monomerSequence: "QVQLVESGGGLVQAGGSLRLSCAASGSIFLIYAMGWYRQAPGKERELVATINRGDNTYYADSVKGRFTISRDNAKNTVYLQMNSLKPEDTAVYYCAARAYDLGYAGYDYWGQGTQVTVSS"
  measuredResult: "low polyreactivity"
- monomerSequence: "QVQLVESGGGLVQAGGSLRLICAASGFISNINVMGWYRQAPGKERELVAAITYIDGSTFYADSVKGRFTISRDNAKNTVYLQMNSLKPEDTAVYYCAKTRVRGSEFGYWGQGTQVTVSS"
  measuredResult: "low polyreactivity"
- monomerSequence: "QVQLQESGGGLAQAGGCLRLSCAASGTIFPADSMGWYRQAPGIERELVAGITSGANTYYADSVKGRFTISHDNAKNTVYLQMDSLIPEDIAVYYCAAPGSSTYDLEYWGQGTQGTVSS"
  measuredResult: "high polyreactivity"
- monomerSequence: "QVQLVESGGGLVQAGGSLRLSCAASGRTFWVYAMGWYRQAPGKERELVAAISRSGVSTYYADSVKGRFTISRDNAKNTVYLQMNSLKPEDTAVYYCAAPLIYTPLKYHYWGQGTQVTVSS"
  measuredResult: "low polyreactivity"
- monomerSequence: "QVQLVESGGGLVQAGGSLRLSCAASGRIFRYYAIGWYRQAPGKERELVAAISKSGGGTFYADSVKGRFTISRDNAKNTVYLQMNSLKPEDTAVYYCAARDKGLGKHDYWGQGTQVTVSS"
  measuredResult: "low polyreactivity"

If you can, please state the reported polyreactivity (PSR sort gate) value of QVQLVESGGGLVQAGGSLRLSCAASGSIFTNYAMGWYRQAPGKERELVAAISQSGDTTYNADSVKGRFTISRDNAKNTVYLQMNSLKPEDTAVFFCAAQYYRWFYYWGQGTQVTVSS .
high polyreactivity

If you can, please state the reported polyreactivity (PSR sort gate) value of QVQLVESGGGLVQAGGSLRLICSASGRTFLYNSMGWYRQAPGKERELVAAIRWSGGTTYYADSVKGRFTISRDNAKYNVYLQMNSLKPEDTAVYYCAARWGPYYGGVRYGYWGQGTQVTVSS .
high polyreactivity

If you can, please state the reported polyreactivity (PSR sort gate) value of QVQLVESGGGLVQAGGSLRLSCAASGGIFIANAMGWYRQAPGKERELVAAISSSGGSTYYADSVKGRFTISRDNAKNTVYLQMNSLKPEDTAVYYCAARRSVRRGGDYYWGQGTQVTVSS .
high polyreactivity

If you can, please state the reported polyreactivity (PSR sort gate) value of QVQLVESGGGLVQAGGSLRLSCAASGSIFKVNTMGWYRQAPGKERELVAAISYSGGSTYYADSVKGRFTISRDHAKNTVYLQMNSLKPEDTAVYYCNVSPTTSGDGGGYDSWGQGTQVTVSS .
low polyreactivity

If you can, please state the reported polyreactivity (PSR sort gate) value of QEQLVESGGGLVQAGGSLRLTCAASGRTFFRYARGWYRQAPGKEREVVAAISSGGSTYYADTVKGRFTISRDNAKNTVYLQMNSLKPEDTAVYYCATRNYRLWPYVSVAYDYCGQGTQVTVSS .
high polyreactivity
